Values compiled from ChEMBL document CHEMBL1697781.

test system: Hepatotoxicity; test: FDA HLAED, gamma-glutamyl transferase (GGT) increase; conditions: human
Readout Label: GGT Increase - Number of Reports

In the examples that follow, each entry is paired with its recorded GGT Increase - Number of Reports.
Molecule | GGT Increase - Number of Reports
CO/N=C(\C(=O)N[C@@H]1C(=O)N2C(C(=O)O)=C(COC(N)=O)CS[C@H]12)c1ccco1 | < 4
O=C1CC[C@@]2(O)[C@H]3Cc4ccc(O)c5c4[C@@]2(CCN3CC2CC2)[C@H]1O5 [NALTREXONE] | < 4
C[C@H]1COc2c(N3CCN(C)CC3)c(F)cc3c(=O)c(C(=O)O)cn1c23.C[C@H]1COc2c(N3CCN(C)CC3)c(F)cc3c(=O)c(C(=O)O)cn1c23.O | < 4
COc1ccc(C(CN(C)C)C2(O)CCCCC2)cc1 (stereo not drawn) | >= 4
CCOC(=O)C1=C(C)NC(C)=C(C(=O)OC)C1c1cccc(Cl)c1Cl (stereo not drawn) | < 4

Name the reported GGT Increase - Number of Reports value associated with the molecule CCCCCCC(C)(C)c1cc(O)c2c(c1)OC(C)(C)C1CCC(=O)CC21 (stereo not drawn)
< 4

Please give the result for CC(C(=O)O)c1ccc(C(=O)c2cccs2)cc1 (stereo not drawn) too.
< 4

Check CC(C)(C)c1ccc(C(O)CCCN2CCC(C(O)(c3ccccc3)c3ccccc3)CC2)cc1 (stereo not drawn) too.
< 4

* * *

system: Hepatotoxicity; test: FDA HLAED, liver enzyme composite activity; conditions: human
Item-by-item account of Composite Activity - Active
// no unit string in output, number only

Here's what some known entries look like.
Compound | Experimental Target | Readout Label | Recorded Result
FC(F)(F)C(Cl)Br (centres undefined) | Hepatotoxicity | Composite Activity - Active | 1
Cc1ncc2n1-c1ccc(Cl)cc1C(c1ccccc1F)=NC2 | Hepatotoxicity | Composite Activity - Active | 0

Any idea what its Composite Activity - Active is? The compound is CN1C(=O)OC(C)(C)C1=O
2

Thanks! And CO/N=C(\C(=O)N[C@@H]1C(=O)N2C(C(=O)OC(C)OC(C)=O)=C(COC(N)=O)CS[C@H]12)c1ccco1 (some centres undefined) ?
0

And for Nc1nc2c(ncn2CCC(CO)CO)c(=O)[nH]1 ?
0

Input CC(=O)OCC1=C(C(=O)O)N2C(=O)[C@@H](NC(=O)CSc3ccncc3)[C@H]2SC1
0

Now try CCOC(=O)[C@H](CCc1ccccc1)N[C@@H](C)C(=O)N1Cc2cc(OC)c(OC)cc2C[C@H]1C(=O)O .
0

Let us now turn to C[C@@H]1CN(c2c(F)c(N)c3c(=O)c(C(=O)O)cn(C4CC4)c3c2F)C[C@H](C)N1
0

For CC(C)NCC(O)COc1cccc2[nH]ccc12 (centres undefined) then?
0

* * *

tested on: Hepatotoxicity; assay: FDA HLAED, gamma-glutamyl transferase (GGT) increase; settings: human
Readout Label: GGT Increase - Activity Score

Examples with answers:
Compound | Experimental Target | GGT Increase - Activity Score
CNS(=O)(=O)Cc1ccc2[nH]cc(CCN(C)C)c2c1 | Hepatotoxicity | Inactive
Clc1ccc(CSC(Cn2ccnc2)c2ccc(Cl)cc2Cl)cc1 (stereo not drawn) | Hepatotoxicity | Inactive
C[C@@H]1O[C@@H]1P(=O)(O)O | Hepatotoxicity | Inactive
CC[C@H](C)C(=O)O[C@H]1C[C@H](O)C=C2C=C[C@H](C)[C@H](CC[C@@H](O)C[C@@H](O)CC(=O)O)[C@H]21 | Hepatotoxicity | Active
CC(C)(C)NC(=O)[C@H]1CC[C@H]2[C@@H]3CC[C@H]4NC(=O)C=C[C@]4(C)[C@H]3CC[C@]12C [FINASTERIDE] | Hepatotoxicity | Inactive
O=C(O)c1cc(-c2ccc(F)cc2F)ccc1O | Hepatotoxicity | Inactive

Looking for the measured GGT Increase - Activity Score of C[C@@H](CN1CC(=O)NC(=O)C1)N1CC(=O)NC(=O)C1 , can you help?
Inactive

Next compound up: CC[C@H]1OC(=O)[C@H](C)[C@@H](O[C@H]2C[C@@](C)(OC)[C@@H](O)[C@H](C)O2)[C@H](C)[C@@H](O[C@@H]2O[C@H](C)C[C@H](N(C)C)[C@H]2O)[C@](C)(O)C[C@@H](C)CN(C)[C@H](C)[C@@H](O)[C@]1(C)O
Inactive

One more compound: CCCN1C[C@H](CSC)C[C@@H]2c3cccc4[nH]cc(c34)C[C@H]21 [PERGOLIDE]
Inactive

Then what about the compound Clc1ccc(CO/N=C(\Cn2ccnc2)c2ccc(Cl)cc2Cl)c(Cl)c1 ?
Inactive

Likewise for CCCCCc1cc(O)c2c(c1)OC(C)(C)[C@@H]1CCC(C)=C[C@@H]21 ?
Inactive

CC(c1cc2ccccc2s1)N(O)C(N)=O (stereo not drawn) , same question.
Inactive

Repeat with O=C(O)P(=O)(O)O
Active

Now try CC(C)(C)NCC(O)COc1cccc2c1CCC(=O)N2 (stereo not drawn) .
Inactive

Same thing, different compound: COc1ccc(CCN(C)CCCC(C#N)(c2ccc(OC)c(OC)c2)C(C)C)cc1OC (stereo not drawn)
Inactive

Same for NCCC(O)(P(=O)(O)O)P(=O)(O)O
Active

How about this compound: CC(C)NCC(O)COc1ccc(CCOCC2CC2)cc1 (stereo not drawn)
Inactive

What do you have for COCC(=O)Nc1c(I)c(C(=O)NCC(O)CO)c(I)c(C(=O)N(C)CC(O)CO)c1I (stereo not drawn) [IOPROMIDE] ?
Inactive
